biological target: Disintegrin and metalloproteinase domain-containing protein 17 (Homo sapiens); test: Inhibition of TACE in human PBMC assessed as reduction in LPS-induced TNFalpha production incubated overnight by HTRF assay; type: cell-based
Answer each item with its documented IC50.
Give bare numbers, in nM.

>>> data_value("CC(=O)N1CC(CC(=O)NO)(NS(=O)(=O)c2ccc(OCc3cc(C)nc4ccccc34)cc2)C1")
8
>>> data_value("Cc1cc(COc2ccc(S(=O)(=O)NC3(CC(=O)NO)COC3)cc2)c2ccccc2n1")
10
>>> data_value("Cc1cc(COc2ccc(S(=O)(=O)NC(C)(C)C(=O)NO)cc2)c2ccccc2n1")
140

Parameters: items (list). Returns: IC50 for each item.
1. Cc1cc(COc2ccc(S(=O)(=O)NC3(C(=O)NO)CN(C(=O)C(C)C)C3)cc2)c2ccccc2n1
2. Cc1cc(COc2ccc(S(=O)(=O)NC3(CC(=O)NO)CN(C(=O)C(C)(C)N(C)C)C3)cc2)c2ccccc2n1
3. Cc1cc(COc2ccc(S(=O)(=O)NC3(CC(=O)NO)CC3)cc2)c2ccccc2n1
4. Cc1cc(COc2ccc(S(=O)(=O)NC3(CC(=O)NO)CN(CCC(F)(F)F)C3)cc2)c2ccccc2n1
5. Cc1cc(COc2ccc(S(=O)(=O)NC3(CC(=O)NO)CCN(C(=O)CC(C)C)C3)cc2)c2ccccc2n1 (stereo in doubt; 18h)
6. CC#CCOc1ccc(S(=O)(=O)NC2(CC(=O)NO)CN(C(C)=O)C2)cc1
7. CC(=O)N1CC(CC(=O)NO)(NS(=O)(=O)c2ccc(OCc3cc(C)nc4c(F)cccc34)cc2)C1

# output
1. 16
2. 4.6
3. 84
4. 10
5. 42
6. 1300
7. 61

Parameters: items (list). Returns: IC50 for each item.
1. CCCCN1CC(CC(=O)NO)(NS(=O)(=O)c2ccc(OCc3cc(C)nc4ccccc34)cc2)C1
2. Cc1cc(COc2ccc(S(=O)(=O)NC3(C(=O)NO)CC3)cc2)c2ccccc2n1
3. COCCN(C1(C(=O)NO)CN(C(=O)C(C)C)C1)S(=O)(=O)c1ccc(OCc2cc(C)nc3ccccc23)cc1
4. CC(=O)N1CC(CC(=O)NO)(N(C)S(=O)(=O)c2ccc(OCc3cc(C)nc4ccccc34)cc2)C1
5. Cc1cc(COc2ccc(S(=O)(=O)NC3(C(=O)NO)CCCCC3)cc2)c2ccccc2n1

# output
12
210
31
590
100

GET /value?item= CC(=O)N1CC2(C1)CC(NS(=O)(=O)c1ccc(OCc3cc(C)nc4ccccc34)cc1)(C(=O)NO)C2 &field=IC50 returns 36

====

Answer each item with its documented pIC50.
target: Voltage-gated inwardly rectifying potassium channel KCNH2 (Homo sapiens); assay: Inhibition of human ERG expressed in CHO-K1 cells assessed as reduction in tail current amplitude by patch clamp assay; format: cell-based
Sequence (Q12809 whole entry): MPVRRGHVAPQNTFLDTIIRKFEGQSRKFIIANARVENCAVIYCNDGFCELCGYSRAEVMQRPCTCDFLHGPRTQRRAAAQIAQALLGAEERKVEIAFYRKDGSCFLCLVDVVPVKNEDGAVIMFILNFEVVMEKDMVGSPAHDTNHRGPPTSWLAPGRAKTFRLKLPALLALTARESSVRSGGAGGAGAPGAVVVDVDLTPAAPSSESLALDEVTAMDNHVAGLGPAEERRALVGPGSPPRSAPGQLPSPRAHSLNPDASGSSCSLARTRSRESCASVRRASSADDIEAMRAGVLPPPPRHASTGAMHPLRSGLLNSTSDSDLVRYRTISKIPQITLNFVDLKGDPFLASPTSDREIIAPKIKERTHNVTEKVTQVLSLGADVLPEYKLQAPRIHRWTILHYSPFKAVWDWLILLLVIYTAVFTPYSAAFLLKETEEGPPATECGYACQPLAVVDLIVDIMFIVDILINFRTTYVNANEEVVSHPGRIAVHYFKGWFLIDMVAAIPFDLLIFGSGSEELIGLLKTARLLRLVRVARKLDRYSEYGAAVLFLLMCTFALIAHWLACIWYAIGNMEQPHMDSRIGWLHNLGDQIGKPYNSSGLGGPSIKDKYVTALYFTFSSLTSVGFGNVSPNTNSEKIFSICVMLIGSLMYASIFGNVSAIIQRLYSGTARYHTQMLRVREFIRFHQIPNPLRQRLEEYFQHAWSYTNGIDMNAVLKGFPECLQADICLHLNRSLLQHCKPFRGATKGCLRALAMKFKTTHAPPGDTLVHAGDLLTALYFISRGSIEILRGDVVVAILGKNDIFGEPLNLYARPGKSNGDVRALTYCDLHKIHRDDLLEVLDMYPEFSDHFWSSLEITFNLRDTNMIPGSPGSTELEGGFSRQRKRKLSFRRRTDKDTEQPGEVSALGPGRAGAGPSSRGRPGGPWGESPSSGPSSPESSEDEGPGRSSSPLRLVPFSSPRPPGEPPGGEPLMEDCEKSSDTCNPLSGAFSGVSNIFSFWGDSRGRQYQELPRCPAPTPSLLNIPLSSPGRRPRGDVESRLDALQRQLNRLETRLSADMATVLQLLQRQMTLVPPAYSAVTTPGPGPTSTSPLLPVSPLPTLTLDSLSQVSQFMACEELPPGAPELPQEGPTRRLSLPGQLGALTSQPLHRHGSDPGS
pIC50: −log10 of the molar value.

>>> data_value("Cc1cc(COc2ccc(S(=O)(=O)N(C)C3(C(=O)NO)CN(C(=O)CC(C)C)C3)cc2)c2ccccc2n1")
"< 4.00"

Please turn your attention to the following entry.
GET /value?item= Cc1cc(COc2ccc(S(=O)(=O)N(C)C3(C(=O)NO)CN(C(=O)C(C)C)C3)cc2)c2ccccc2n1 &field=pIC50 returns < 4.00

====

target: Matrix metalloproteinase-14 (Homo sapiens, UniProt P50281)
Quantity Measured: pIC50
Answers are plain numbers, as −log10 of the molar value.

GET /value?item= Cc1cc(COc2ccc(S(=O)(=O)N(C)C3(C(=O)NO)CN(C(=O)CC(C)C)C3)cc2)c2ccccc2n1 &field=pIC50 returns 5.36

====

target: Matrix metalloproteinase-9 (Homo sapiens, UniProt P14780)
Sequence (P14780 whole entry): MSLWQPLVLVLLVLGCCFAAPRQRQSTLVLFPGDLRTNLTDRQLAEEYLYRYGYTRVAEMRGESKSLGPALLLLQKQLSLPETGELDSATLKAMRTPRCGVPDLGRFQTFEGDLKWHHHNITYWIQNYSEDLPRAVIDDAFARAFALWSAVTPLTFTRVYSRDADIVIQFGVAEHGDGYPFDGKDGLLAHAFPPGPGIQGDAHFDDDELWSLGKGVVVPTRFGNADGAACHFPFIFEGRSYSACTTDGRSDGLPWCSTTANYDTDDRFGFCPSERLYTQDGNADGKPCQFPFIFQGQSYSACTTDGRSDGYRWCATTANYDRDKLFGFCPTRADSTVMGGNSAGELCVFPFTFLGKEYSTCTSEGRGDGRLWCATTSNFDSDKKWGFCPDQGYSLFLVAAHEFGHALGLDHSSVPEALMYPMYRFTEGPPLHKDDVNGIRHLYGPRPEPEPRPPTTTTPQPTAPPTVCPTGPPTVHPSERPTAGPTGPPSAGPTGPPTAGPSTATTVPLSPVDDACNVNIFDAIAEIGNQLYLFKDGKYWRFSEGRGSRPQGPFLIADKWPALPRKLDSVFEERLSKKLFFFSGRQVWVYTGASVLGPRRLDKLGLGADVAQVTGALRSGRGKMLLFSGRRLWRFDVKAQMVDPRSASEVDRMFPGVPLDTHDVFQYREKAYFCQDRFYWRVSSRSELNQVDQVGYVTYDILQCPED
Quantity Measured: pIC50
Numbers only, as −log10 of the molar value.

GET /value?item= Cc1cc(COc2ccc(S(=O)(=O)N(C)C3(C(=O)NO)CN(C(=O)C(C)C)C3)cc2)c2ccccc2n1 &field=pIC50 returns 5.68

====

test: Fraction unbound in human plasma at 5 uM after 4 hrs by LC-MS/MS analysis; format: ADME, cell-free
Answer each item with its documented fraction unbound at 4 h, 5 µM.

>>> data_value("Cc1cc(COc2ccc(S(=O)(=O)N(C)C3(C(=O)NO)CN(C(=O)CC(C)C)C3)cc2)c2ccccc2n1")
0.003

Please turn your attention to the following entry.
GET /value?item= Cc1cc(COc2ccc(S(=O)(=O)N(C)C3(C(=O)NO)CN(C(=O)C(C)C)C3)cc2)c2ccccc2n1 &field=fraction unbound at 4 h, 5 µM returns 0.019

====

tested on: TK6; assay: Genotoxicity in p53-competent human TK6 cells in presence of Sprague-Dawley rat S9 fraction by GADD45alpha GFP reporter assay; format: toxicity, cell-based
Quantity Measured: Activity

>>> data_value("CC(=O)N1CCC(NS(=O)(=O)c2ccc(OCc3cc(C)nc4ccccc34)cc2)(C(=O)NO)CC1")
"Toxic"
>>> data_value("Cc1cc(COc2ccc(S(=O)(=O)NC3(C(=O)NO)CCCCC3)cc2)c2ccccc2n1")
"Non-Toxic"
>>> data_value("CC(=O)N1CC(CC(=O)NO)(NS(=O)(=O)c2ccc(OCc3cc(C)nc4ccccc34)cc2)C1")
"Non-Toxic"
>>> data_value("Cc1cc(COc2ccc(S(=O)(=O)N(C)C3(C(=O)NO)CN(C(=O)C(C)C)C3)cc2)c2ccccc2n1")
"Non-Toxic"

====

Answer each item with its documented hepatocyte CLint at 1 µM.
test: Intrinsic clearance in human hepatocytes assessed per million cells at 1 uM by LC-MS/MS analysis; format: ADME, cell-based, Hepatocyte; conditions: human hepatocytes, read-out: CLH
Give bare numbers, in µL/min/1e6 cells.

>>> data_value("Cc1cc(COc2ccc(S(=O)(=O)N(C(C)C)C3(C(=O)NO)CN(C(=O)C(C)C)C3)cc2)c2ccccc2n1")
17
>>> data_value("Cc1cc(COc2ccc(S(=O)(=O)NC3(C(=O)NO)CN(C(=O)CC(C)C)C3)cc2)c2ccccc2n1")
6
>>> data_value("COCCN(C1(C(=O)NO)CN(C(=O)C(C)C)C1)S(=O)(=O)c1ccc(OCc2cc(C)nc3ccccc23)cc1")
18
>>> data_value("CCN(C1(C(=O)NO)CN(C(=O)C(C)C)C1)S(=O)(=O)c1ccc(OCc2cc(C)nc3ccccc23)cc1")
11
>>> data_value("Cc1cc(COc2ccc(S(=O)(=O)N(C)C3(C(=O)NO)CN(C(=O)CC(C)C)C3)cc2)c2ccccc2n1")
14
>>> data_value("Cc1cc(COc2ccc(S(=O)(=O)NC[C@@H](C(=O)NO)N3CCCCC3)cc2)c2ccccc2n1")
24
>>> data_value("Cc1cc(COc2ccc(S(=O)(=O)NC3(CC(=O)NO)CN(C(=O)CC(C)C)C3)cc2)c2ccccc2n1")
13

Please turn your attention to the following entry.
GET /value?item= Cc1cc(COc2ccc(S(=O)(=O)N(C)C3(C(=O)NO)CN(C(=O)C(C)C)C3)cc2)c2ccccc2n1 &field=hepatocyte CLint at 1 µM returns 8

====

biological target: Disintegrin and metalloproteinase domain-containing protein 17 (Homo sapiens, UniProt P78536); experiment: Inhibition of TACE in human PBMC assessed as reduction in LPS-induced TNFalpha production incubated overnight by HTRF assay; type: cell-based
Sequence (P78536 whole entry, the tested form may be a part): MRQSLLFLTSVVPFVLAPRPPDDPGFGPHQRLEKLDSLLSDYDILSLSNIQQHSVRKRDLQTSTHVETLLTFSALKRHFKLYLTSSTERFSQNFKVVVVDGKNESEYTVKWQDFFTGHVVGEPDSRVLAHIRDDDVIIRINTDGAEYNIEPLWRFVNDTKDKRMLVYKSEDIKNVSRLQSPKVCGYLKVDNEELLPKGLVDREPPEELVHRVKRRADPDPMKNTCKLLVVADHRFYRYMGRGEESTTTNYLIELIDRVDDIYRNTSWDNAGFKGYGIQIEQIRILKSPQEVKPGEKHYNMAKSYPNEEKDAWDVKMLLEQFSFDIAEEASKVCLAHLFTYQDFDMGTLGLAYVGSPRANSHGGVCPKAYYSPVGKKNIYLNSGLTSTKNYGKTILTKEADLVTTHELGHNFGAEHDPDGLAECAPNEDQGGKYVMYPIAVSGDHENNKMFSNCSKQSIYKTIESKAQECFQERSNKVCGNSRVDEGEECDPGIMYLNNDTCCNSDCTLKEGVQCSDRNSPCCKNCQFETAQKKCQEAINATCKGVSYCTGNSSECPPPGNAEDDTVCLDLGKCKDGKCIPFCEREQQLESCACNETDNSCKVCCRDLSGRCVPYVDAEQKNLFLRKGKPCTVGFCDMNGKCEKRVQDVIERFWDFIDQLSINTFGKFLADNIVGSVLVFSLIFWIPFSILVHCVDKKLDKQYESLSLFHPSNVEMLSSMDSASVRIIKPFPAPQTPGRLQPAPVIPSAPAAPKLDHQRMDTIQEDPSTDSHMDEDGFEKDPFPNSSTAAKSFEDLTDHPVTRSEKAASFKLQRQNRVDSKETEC
Quantity Measured: IC50 (nM)
One number for each entry, in nM.

Field: example entries. Status: answers known.
>>> data_value("CC(=O)N1CC2(C1)CC(CC(=O)NO)(NS(=O)(=O)c1ccc(OCc3cc(C)nc4ccccc34)cc1)C2")
4
>>> data_value("CC(=O)N1CCC(NS(=O)(=O)c2ccc(OCc3cc(C)nc4ccccc34)cc2)(C(=O)NO)CC1")
61
>>> data_value("Cc1cc(COc2ccc(S(=O)(=O)NC3(CC(=O)NO)CN(C(=O)CC(C)C)C3)cc2)c2ccccc2n1")
6
>>> data_value("Cc1cc(COc2ccc(S(=O)(=O)NCC(=O)NO)cc2)c2ccccc2n1")
82
>>> data_value("Cc1cc(COc2ccc(S(=O)(=O)NC3(C(=O)NO)CN(C(=O)CC(C)C)C3)cc2)c2ccccc2n1")
33

Parameters: items (list). Returns: IC50 for each item.
1. Cc1cc(COc2ccc(S(=O)(=O)NC3(C(=O)NO)CCC3)cc2)c2ccccc2n1
2. Cc1cc(COc2ccc(S(=O)(=O)NCCC(=O)NO)cc2)c2ccccc2n1

# output
1: 30; 2: 2300

Parameters: items (list). Returns: IC50 for each item.
1. Cc1cc(COc2ccc(S(=O)(=O)N(C)C3(C(=O)NO)CN(C(=O)CC(C)C)C3)cc2)c2ccccc2n1
2. Cc1cc(COc2ccc(S(=O)(=O)N(C)C3(C(=O)NO)CN(C(=O)C(C)C)C3)cc2)c2ccccc2n1
3. Cc1cc(COc2ccc(S(=O)(=O)NC3(C(=O)NO)CCCC3)cc2)c2ccccc2n1
4. CCc1cc(COc2ccc(S(=O)(=O)NC3(CC(=O)NO)CN(C(C)=O)C3)cc2)c2ccccc2n1
5. Cc1cc(COc2ccc(S(=O)(=O)NC(C)(C)CC(=O)NO)cc2)c2ccccc2n1
6. Cc1cc(COc2ccc(S(=O)(=O)NC3(CC(=O)NO)CN(C(=O)OC(C)C)C3)cc2)c2ccccc2n1
7. Cc1cc(COc2ccc(S(=O)(=O)NC3(CC(=O)NO)CN(C(=O)N4CCCCC4)C3)cc2)c2ccccc2n1

# output
33
9
68
27
43
6
5

Parameters: items (list). Returns: IC50 for each item.
1. Cc1cc(COc2ccc(S(=O)(=O)NC3(CC(=O)NO)CCN(C(=O)CC(C)C)C3)cc2)c2ccccc2n1 (stereo in doubt; 18g)
2. CC(=O)N1CC(CC(=O)NO)(NS(=O)(=O)c2ccc(Cc3cc(C)nc4ccccc34)cc2)C1

# output
[8, 240]
